Test system: biotinyl-Trp-oxazolone
Run description: self-aminoacylation, catalytic enhancement (BWO) (fold over background); higher = more active; k-Seq, kA / k0A0; sequences stand for … in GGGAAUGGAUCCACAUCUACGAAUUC…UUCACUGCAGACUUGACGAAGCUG
This sample holds only a part of the variants without activity.
Measured quantity: self-aminoacylation
Write the value as a bare number.

Take a look at these entries with their results.
INSERT INTO measurements (entry_sequence, observed_measurement) VALUES
  ('AAGUUUGCUAAUACCCGCAAG [Fam3.1 aminoacylation ribozyme variant]', 1.45),
  ('AAUCACCUCGGUCAUCGGGUG [Fam2.2 aminoacylation ribozyme variant]', 7.61);

Lab note: need self-aminoacylation for CCACACAUCAAGCAAUCGGAC [Fam1B.1 aminoacylation ribozyme variant] on biotinyl-Trp-oxazolone, anyone have it?
0.906

Hi! What's the reported self-aminoacylation for CUAUAUCAAACAAUCGGUCUG [Fam1A.1 aminoacylation ribozyme variant] on biotinyl-Trp-oxazolone?
1.01

# returns recorded self-aminoacylation (system: biotinyl-Trp-oxazolone) for AUUACCCUGGUCCUCGAGUAA [Fam2.1 aminoacylation ribozyme variant]
1.64

Lab request: please report self-aminoacylation under test system biotinyl-Trp-oxazolone for AGGUUUGCUAAUAGUAGCAAG [Fam3.1 aminoacylation ribozyme variant]
2.18

Any idea what self-aminoacylation came out for CCACGCUCCAAGCAAUCGGUC [Fam1B.1 aminoacylation ribozyme variant] on biotinyl-Trp-oxazolone?
9.91

Query for biotinyl-Trp-oxazolone: what self-aminoacylation does the record show for UCACACUUCAAGCAAUCGCUC [Fam1B.1 aminoacylation ribozyme variant] ?
1.45
